# targetOrTestSystem: T1, recombinant human IL-23 (human, UniProt P29460 23-328)
# T1 construct: also called Human recombinant IL-23
# T1 sequence 1: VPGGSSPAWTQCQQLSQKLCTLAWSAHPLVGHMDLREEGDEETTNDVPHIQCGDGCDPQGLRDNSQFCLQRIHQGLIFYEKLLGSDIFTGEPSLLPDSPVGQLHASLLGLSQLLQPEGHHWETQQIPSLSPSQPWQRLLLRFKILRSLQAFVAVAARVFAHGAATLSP
# T1 sequence 2: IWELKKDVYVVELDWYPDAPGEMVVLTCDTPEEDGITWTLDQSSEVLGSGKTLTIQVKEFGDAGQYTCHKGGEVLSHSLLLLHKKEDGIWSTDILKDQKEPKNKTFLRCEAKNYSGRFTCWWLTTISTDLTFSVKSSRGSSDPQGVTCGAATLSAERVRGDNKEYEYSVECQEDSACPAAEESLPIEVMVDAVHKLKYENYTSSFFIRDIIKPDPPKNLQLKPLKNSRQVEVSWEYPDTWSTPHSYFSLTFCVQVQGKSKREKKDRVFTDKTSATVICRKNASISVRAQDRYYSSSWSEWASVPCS
# assayProcedure: BLI, Fortebio Octet; hybridoma-derived antibody
quantityMeasured: Kd (nM)
The reply should contain only the number, in nM.

Lookup: If you can, please state the reported Kd value of 22E2 (antibody, V domains shown, Mouse monoclonal antibody from hybridoma; also called 22E2vk; 22E2vh) VH: EVQLQQSGPELVKPGASVKMSCKASGYTFTSSIIHWVKQRPGQGLEWIGYINPYDDVTKYNEKFKGKATLTSDKSSSTAYMELSSLTSEDSAVYYCARRWDESYWGQGTLVTVSA VL: DIVMTQSPATLSVTPGDRVSLSCRASQSISVYLHWYQQKSPESPRLLIKYASQSISGIPSRFSGSGSGSDFTLSINSVEPEDVGVYYCQNGHSFPFTFGSGTKLEIK .
Found: 1.02
